Tested on: 217524-143-R1-J4-PDC spheroids with HUVEC/MSC, viability;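 note: spheroids exposed to agents for seven days before reading; 100% = DMSO vehicle control viability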
Experiment summary: Anticancer human tumor 217524-143-R1-J4-PDC patient-derived pancreatic carcinoma cell line growth inhibition [CLK]; active = viability on the fitted dose curve at most 10% of control; inactive = the rest
Protocol conditions: second compound 10 µM; first compound 0.0316 µM
One label from this list, please: yes (1) for active, no (0) for inactive

Please review the entries below; each comes with its answer.
Compound	System tested	Group label
Nc1ccccc1NC(=O)c1ccc(CNC(=O)OCc2cccnc2)cc1 + CNC(=O)c1ccc(Nc2nc(OC3CCCC3)c3c(-c4ccc5nc(C)oc5c4)c[nH]c3n2)c(OC)c1	217524-143-R1-J4-PDC spheroids with HUVEC/MSC, viability	no (0)
COc1cccc2c1C(=O)c1c(O)c3c(c(O)c1C2=O)CC(O)(C(=O)CO)CC3OC1CC(N)C(O)C(C)O1 (centres undefined) + CN1CCN(c2cc(C(=O)Nc3cc4cc(-c5cnn(C)c5)ccc4cn3)ccn2)CC1	217524-143-R1-J4-PDC spheroids with HUVEC/MSC, viability	yes (1)

Prompt: Per the assay record, what outcome was assigned to CC1(C)CCC(CN2CCN(c3ccc(C(=O)NS(=O)(=O)c4ccc(NCC5CCOCC5)c([N+](=O)[O-])c4)c(Oc4cnc5[nH]ccc5c4)c3)CC2)=C(c2ccc(Cl)cc2)C1 + CNC(=O)c1ccc(Nc2nc(OC3CCCC3)c3c(-c4ccc5nc(C)oc5c4)c[nH]c3n2)c(OC)c1 ?
Completion: no (0)

Prompt: Per the assay record, what outcome was assigned to O=C(c1cc(Cc2n[nH]c(=O)c3ccccc23)ccc1F)N1CCN(C(=O)C2CC2)CC1 + CNC(=O)c1ccc(Nc2nc(OC3CCCC3)c3c(-c4ccc5nc(C)oc5c4)c[nH]c3n2)c(OC)c1 ?
Completion: no (0)

Hello, the source for this data is PubChem BioAssay AID2060624, in case you need it.
